Data provenance: paper PMC8829872

test: Unified compartmental PK model (ADAPT5); set-up: species or system mice; conditions: Balb/c, mouse, plasma; 20 mg/kg PO; read-out: Model F (compartmental bioavailability)
property measured: bioavailability (%)
Give a bare numeral; the unit % is implied.

# lookup: bioavailability of C[C@@H]1COCCN1c1cc(C2([S@](C)(=N)=O)CC2)nc(-c2cc[nH]c3nccc2-3)n1 80.4

###

experiment: Extensive tissue distribution study in CT26 tumor-bearing mice; type: in vivo, Balb/c mice; settings: Balb/c, mouse; 75 mg/kg PO; Draining Lymph Node; 0-1440 min; read-out: AUC0-t (converted)
property measured: AUC(0-t) (ng·h/mL)
Give a bare numeral; the unit ng·h/mL is implied.

# lookup: AUC(0-t) of C[C@@H]1COCCN1c1cc(C2([S@](C)(=N)=O)CC2)nc(-c2cc[nH]c3nccc2-3)n1 [AZD6738] 31200
